- Assay target: T1, human ASGR-1 mutant construct H203 (human, UniProt P07306 1-291)
- T1 construct: Arg/Glu scanning: non-arginine residues were changed to arginine; Transiently expressed on CHO-S cells
- T1 sequence: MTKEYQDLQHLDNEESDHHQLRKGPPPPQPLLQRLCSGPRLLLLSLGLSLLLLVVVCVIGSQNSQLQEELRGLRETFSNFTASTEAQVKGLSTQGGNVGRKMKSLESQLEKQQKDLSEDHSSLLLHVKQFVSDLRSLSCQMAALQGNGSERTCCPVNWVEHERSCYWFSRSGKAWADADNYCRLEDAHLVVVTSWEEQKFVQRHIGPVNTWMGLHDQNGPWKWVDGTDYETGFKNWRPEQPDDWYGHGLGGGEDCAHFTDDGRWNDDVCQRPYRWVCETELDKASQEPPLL
- Assay info: FACS, transfected CHO-S cells, mAb 5 ug/ml
Measurement kind: FACS Binding Geomean
// print number alone

193E7 (antibody, V domains shown, mAb) VH: QVQLQQWGAGLLKPSETLSLTCAVYGGSFSGYFWTWIRQPPGKGLEWIGEINHSGSTNYNPSLKSRVTISVDTSKNQFSLKLSSVTAADTAVYYCARDYGADYWGQGTLVAVSA VL: DIQMTQSPSSLSASVGDRVTITCRASQGIRNDLGWYQQKPGKAPKRLIYSASSLQRGVPSRFSGSGSGTEFTLTISSLQPEDFATYYCLQHKRYPLTFGGGTKVEIK: 13800

Q: May I ask what FACS Binding Geomean has been recorded for 175F4 (antibody, V domains shown, mAb) VH: QVQLQQSGPGLVKPSQTLSLTCAISGDSVSSNSAAWNWIRQSPSRGLEWLGRTYYRSKWYNAYPVSMESRISINPDTSKNQFSLQLNSVTPEDTAVYYCARDKAAGRNDFYYYGMDVWGQGTTVTVSS VL: QSALTQPASVSGSPGQSITISCTGTSSDVGRFNLVSWYQQHPGYAPKLMIYEVSKRPSGVSNRFSGSKSGNTASLTISGLQAEDEADYYCCSYAGSSTYVVFGGGTKLTVL ?
A: 14800
